Ref: patent US12098216B2

- Tested on: PDL-1 and/or PDL-2 signaling
- test-details: Luciferase assay of dipeptides, Table 1
- Assay type: cell-based
Square brackets hold non-standard residues; d marks the D form. Peptide text beside a SMILES is read from it. * marks the point of attachment. dOrn = NCCC[C@@H](N)C(=O)O; Orn = NCCC[C@H](N)C(=O)O; Ac5c = NC1(C(=O)O)CCCC1; PhAc = O=C(Cc1ccccc1)*; Aib = CC(C)(N)C(=O)O

molecule	EC50 [µM]
CC(C)(NC(=O)[C@H](CCCN)NC(=O)Cc1ccccc1)C(N)=O [Compound 2] (PhAc-[Orn]-[Aib]-NH2)	7.9
CC(C)(NC(=O)[C@@H](CCCN)NC(=O)Cc1ccc(C(F)(F)F)cc1)C(N)=O	0.01
CCCC[C@@H](NC(=O)Cc1ccc(F)cc1)C(=O)NC(C)(C)C(N)=O	10.3
NCCC[C@@H](NC(=O)Cc1ccccc1)C(=O)NC1(C(N)=O)CCCC1 [Compound 7] (PhAc-[dOrn]-[Ac5c]-NH2)	0.28

* * *

- Test system: PDL-1 and/or PDL-2 signaling
- test-details: Luciferase assay of dipeptides, Table 1
- Format: cell-based
Let's look at some compounds and their measured EC50.

structure-notation	EC50 (µM)
CC(C)(NC(=O)[C@@H](CCCN)NC(=O)C1(c2ccc(F)cc2)CC1)C(N)=O	5.03
CC(C)(NC(=O)[C@@H](CCCN)NC(=O)Cc1cccc(F)c1)C(N)=O	1.28
CC(C)(NC(=O)[C@@H](CCCN)NC(=O)Cc1ccc(OC(F)(F)F)cc1)C(N)=O	0.09
CC(C)(NC(=O)[C@@H](CCCN)NC(=O)Cc1c(F)cccc1F)C(N)=O	0.596

* * *

- Tested on: PDL-1 and/or PDL-2 signaling
- test-details: Luciferase assay of dipeptides, Table 1
- Type: cell-based
Square brackets hold non-standard residues; d marks the D form. Peptide text beside a SMILES is read from it. * marks the point of attachment. dPhe(4-CH2NH2) = NCc1ccc(C[C@@H](N)C(=O)O)cc1; dOrn = NCCC[C@@H](N)C(=O)O; PhAc = O=C(Cc1ccccc1)*; Ac3c = NC1(C(=O)O)CC1; Aib = CC(C)(N)C(=O)O
Reported EC50 values for a set of molecules

molecule	assayed-system	result-unit	EC50
NCCC[C@@H](NC(=O)Cc1ccc(F)cc1)C(=O)NC1(C(N)=O)CC1	PDL-1 and/or PDL-2 signaling	µM	3.32
CC(C)(NC(=O)[C@@H](CCCN)NC(=O)Cc1ccccc1)C(N)=O [Compound 1] (PhAc-[dOrn]-[Aib]-NH2)	PDL-1 and/or PDL-2 signaling	µM	18
CC(C)(NC(=O)[C@@H](CCCN)NC(=O)C(C)(C)c1ccc(F)cc1)C(N)=O	PDL-1 and/or PDL-2 signaling	µM	3.79
CC(C)(NC(=O)[C@@H](CCCN)NC(=O)Cc1cc(F)c(F)c(F)c1)C(N)=O	PDL-1 and/or PDL-2 signaling	µM	28.3
CC(C)(NC(=O)[C@@H](Cc1ccc(CN)cc1)NC(=O)Cc1ccccc1)C(N)=O [Compound 23] (PhAc-[dPhe(4-CH2NH2)]-[Aib]-NH2)	PDL-1 and/or PDL-2 signaling	µM	17.7
CC(C)(NC(=O)[C@@H](CCCN)NC(=O)Cc1ccc(F)cc1Cl)C(N)=O	PDL-1 and/or PDL-2 signaling	µM	10.2
CC(C)(NC(=O)[C@@H](CCCN)NC(=O)Cc1ccc(F)cc1F)C(N)=O	PDL-1 and/or PDL-2 signaling	µM	2.58
COc1ccc(CC(=O)N[C@H](CCCN)C(=O)NC(C)(C)C(N)=O)cc1	PDL-1 and/or PDL-2 signaling	µM	0.32
CC(C)(NC(=O)[C@@H](CCCN)NC(=O)Cc1cc(F)cc(F)c1)C(N)=O	PDL-1 and/or PDL-2 signaling	µM	2.1
Cc1c[nH]c(=O)c(NC(=O)[C@@H](CCCN)NC(=O)Cc2ccc(F)cc2)c1	PDL-1 and/or PDL-2 signaling	µM	0.59
CC(C)(NC(=O)[C@@H](CCCN)NC(=O)Cc1ccc(F)cc1)C(N)=O	PDL-1 and/or PDL-2 signaling	µM	0.47
CC(C)(NC(=O)[C@@H](CCCN)NC(=O)Cc1ccc(F)c(F)c1)C(N)=O	PDL-1 and/or PDL-2 signaling	µM	2
CC(C)(NC(=O)[C@@H](CCCN)NC(=O)Cc1ccccc1F)C(N)=O	PDL-1 and/or PDL-2 signaling	µM	0.05
Cn1cc(C(=O)N[C@H](CCCN)C(=O)NC(C)(C)C(N)=O)c2ccccc21	PDL-1 and/or PDL-2 signaling	µM	1.28
CC(C)(NC(=O)[C@@H](Cc1ccc(CN)cc1)NC(=O)Cc1ccc(F)cc1)C(N)=O	PDL-1 and/or PDL-2 signaling	µM	0.714
CN(C)CCC[C@@H](NC(=O)Cc1ccc(F)cc1)C(=O)NC(C)(C)C(N)=O	PDL-1 and/or PDL-2 signaling	µM	23.8
NCCC[C@@H](NC(=O)Cc1ccccc1)C(=O)NC1(C(N)=O)CC1 [Compound 14] (PhAc-[dOrn]-[Ac3c]-NH2)	PDL-1 and/or PDL-2 signaling	µM	0.11
CC(C)(NC(=O)[C@@H](CCCN)NC(=O)C1(c2ccccc2)CC1)C(N)=O	PDL-1 and/or PDL-2 signaling	µM	2.05
CC(C)(NC(=O)[C@@H](CCCN)NC(=O)Cc1nc2ccccc2o1)C(N)=O	PDL-1 and/or PDL-2 signaling	µM	19.2
CC(C)(NC(=O)[C@@H](CCCN)NC(=O)Cc1c(F)cc(F)cc1F)C(N)=O	PDL-1 and/or PDL-2 signaling	µM	0.06
